Provide the reported pEC50 of each item.
target: ScSte2 (Saccharomyces cerevisiae, UniProt D6VTK4); construct: we cloned codon-optimized open reading frames (ORFs) of all 5 proteases and GPCRs; expressed in transfected cells; host or cells: S. cerevisiae yTC391 (from yTC370, native STE2 deleted; pTDH3-ScSTE2 genome-integrated); assay: cell-based; conditions: SEM
Sequence (D6VTK4 whole entry): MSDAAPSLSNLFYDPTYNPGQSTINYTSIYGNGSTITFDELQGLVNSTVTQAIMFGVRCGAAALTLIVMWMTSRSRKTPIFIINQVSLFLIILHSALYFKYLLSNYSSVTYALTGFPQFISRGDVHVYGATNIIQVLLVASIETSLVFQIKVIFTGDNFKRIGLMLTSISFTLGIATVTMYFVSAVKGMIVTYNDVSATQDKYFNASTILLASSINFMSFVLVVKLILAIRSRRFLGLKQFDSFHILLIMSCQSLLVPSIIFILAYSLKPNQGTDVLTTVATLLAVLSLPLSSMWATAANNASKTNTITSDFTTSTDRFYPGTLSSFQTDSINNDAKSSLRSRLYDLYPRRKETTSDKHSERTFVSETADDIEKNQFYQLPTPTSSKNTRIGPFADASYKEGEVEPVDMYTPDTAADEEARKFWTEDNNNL
Give bare numbers, as −log10 of the molar value.

CSCC[C@H](NC(=O)[C@@H]1CCCN1C(=O)[C@H](CCC(N)=O)NC(=O)CNC(=O)[C@@H]1CCCN1C(=O)[C@H](CCCCN)NC(=O)[C@H](CC(C)C)NC(=O)[C@H](CCC(N)=O)NC(=O)[C@H](CC(C)C)NC(=O)[C@H](Cc1c[nH]c2ccccc12)NC(=O)[C@H](C)NC(=O)[C@@H](N)Cc1c[nH]c2ccccc12)C(=O)N[C@@H](Cc1ccc(O)cc1)C(=O)O [ScPep2A] ... 7.10

Prompt: Recorded pEC50 of CC(C)C[C@H](NC(=O)[C@H](Cc1c[nH]c2ccccc12)NC(=O)[C@H](Cc1c[nH]cn1)NC(=O)[C@@H](N)Cc1c[nH]c2ccccc12)C(=O)N[C@@H](CCC(N)=O)C(=O)N[C@@H](CC(C)C)C(=O)N[C@@H](CCCCN)C(=O)N1CCC[C@H]1C(=O)NCC(=O)N[C@@H](CCC(N)=O)C(=O)N1CCC[C@H]1C(=O)N[C@@H](C)C(=O)N[C@@H](Cc1ccc(O)cc1)C(=O)O [ScPep12A] , please.
Response: 7.30
